# System: SNB-75
# experimentalDetails: Growth inhibition of human SNB75 cells
# Format: functional
parameter: GI50 (µM)
Note: unit µM is implicit; provide only the numeric part.

# count of solved cases: 3
| compound | parameter | obsValue |
| --- | --- | --- |
| COc1cc(Cc2c(C)cc(OC)c3[nH]c4ccccc4c23)cc2c1[nH]c1ccccc12 | GI50 | 5.75 |
| COc1cc(C(=O)O)cc2c1[nH]c1ccccc12 [MUKOEIC ACID] | GI50 | 25.1 |
| CC1=CC(=O)c2[nH]c3ccccc3c2C1=O [MURRAYAQUINONE A] | GI50 | 4.37 |

Task: Query: GI50; subject: CC(C)=CCCC1(C)C=Cc2c(ccc3c2[nH]c2cc(O)c(C)cc23)O1 (stereo not given)
Output: 12.9

Task: Query: GI50; subject: C=C(C)C(O)CCC1(C)C=Cc2c(c(C)cc3c2[nH]c2ccccc23)O1 (stereo not given)
Output: 3.31

###

# Tested on: IGROV-1
# experimentalDetails: Growth inhibition of human IGROV1 cells
# Format: functional
Label label 1 when GI50 < 10 µM; otherwise label 0.

// known answers, use as guide
| compound | answerLabel |
| --- | --- |
| COc1cc(Cn2c3ccccc3c3cc(C)cc(OC)c32)cc2c1[nH]c1ccccc12 | label 0 |
| CC1=CC(=O)c2[nH]c3ccccc3c2C1=O [MURRAYAQUINONE A] | label 1 |
| COc1cc(C(=O)O)cc2c1[nH]c1ccccc12 [MUKOEIC ACID] | label 0 |

Task: Lab log: compare recorded GI50 with 10 µM; is it strictly lower for COc1cc(Cc2c(C)cc(OC)c3[nH]c4ccccc4c23)cc2c1[nH]c1ccccc12 ?
Output: label 1

Task: Lab log: compare recorded GI50 with 10 µM; is it strictly lower for Cc1cc2c(cc1O)[nH]c1cc3c(cc12)C=CC(C)(C)O3 ?
Output: label 0

Task: Lab log: compare recorded GI50 with 10 µM; is it strictly lower for C=C(C)C(O)CCC1(C)C=Cc2c(c(C)cc3c2[nH]c2ccccc23)O1 (stereo not drawn) ?
Output: label 1

Task: Lab log: compare recorded GI50 with 10 µM; is it strictly lower for COc1ccc2c([nH]c3cc(O)c(C)cc32)c1CC=C(C)C ?
Output: label 1

Task: Lab log: compare recorded GI50 with 10 µM; is it strictly lower for COc1cc(C)cc2c1[nH]c1ccccc12 [MURRAYAFOLINE A] ?
Output: label 0

###

# Tested on: SNB-75
# experimentalDetails: Growth inhibition of human SNB75 cells
# Assay type: functional
parameter: GI50
Answers without a unit are incomplete; give the number and then its unit.

# count of solved cases: 3
| compound | GI50 |
| --- | --- |
| COc1cc(Cn2c3ccccc3c3cc(C)cc(OC)c32)cc2c1[nH]c1ccccc12 | 22.9 µM |
| Cc1cc2c(cc1O)[nH]c1cc3c(cc12)C=CC(C)(C)O3 | 11.2 µM |
| COc1cc(C)cc2c1[nH]c1ccccc12 [MURRAYAFOLINE A] | 25.1 µM |

Now look at this entry.
Task: Query: GI50; subject: COc1ccc2c([nH]c3cc(O)c(C)cc32)c1CC=C(C)C
Output: 11.5 µM
